- Study system: TNAP (Homo sapiens (Human))
- Sequence (P05186 18-501): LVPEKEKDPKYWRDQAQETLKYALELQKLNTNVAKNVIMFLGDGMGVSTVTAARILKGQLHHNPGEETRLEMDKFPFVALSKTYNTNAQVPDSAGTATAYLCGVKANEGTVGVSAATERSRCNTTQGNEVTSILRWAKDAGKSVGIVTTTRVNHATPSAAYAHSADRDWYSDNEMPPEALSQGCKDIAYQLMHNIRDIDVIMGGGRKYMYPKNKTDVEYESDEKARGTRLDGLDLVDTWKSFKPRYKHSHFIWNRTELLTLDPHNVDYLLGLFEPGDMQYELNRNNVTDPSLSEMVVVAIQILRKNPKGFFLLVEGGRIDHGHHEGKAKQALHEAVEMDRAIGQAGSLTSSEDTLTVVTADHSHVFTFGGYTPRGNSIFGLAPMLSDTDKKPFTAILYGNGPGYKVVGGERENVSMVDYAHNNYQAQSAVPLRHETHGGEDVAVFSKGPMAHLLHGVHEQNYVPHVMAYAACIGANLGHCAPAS
pIC50: −log10 of the molar value.
Experimental endpoint: pIC50

Smiles repr	Study system	Experimental endpoint	Recorded value
COc1ccc(OC)c(S(=O)(=O)Nc2cncc(-c3ccccc3C)c2)c1	TNAP (Homo sapiens (Human))	pIC50	6.00 to 7.00
CCN(c1cnc2ccccc2c1)S(=O)(=O)c1cc(Br)ccc1OC	TNAP (Homo sapiens (Human))	pIC50	< 6.00
COc1ccc(-c2cncc(NS(=O)(=O)c3cc(Cl)ccc3OC(F)(F)F)c2)cc1	TNAP (Homo sapiens (Human))	pIC50	> 7.00
COc1ccc(Cl)cc1S(=O)(=O)Nc1cncc(-c2ncccn2)c1	TNAP (Homo sapiens (Human))	pIC50	> 7.00
COc1ccc(Br)cc1S(=O)(=O)Nc1cncc(C(=O)NCCN(C)C)c1	TNAP (Homo sapiens (Human))	pIC50	6.00 to 7.00
COc1ccc(Br)cc1S(=O)(=O)Nc1ccc(N2CCCCC2)nc1	TNAP (Homo sapiens (Human))	pIC50	< 6.00
COc1ccc(-c2cncc(NS(=O)(=O)c3cc(OC(F)(F)F)ccc3OC)c2)cc1	TNAP (Homo sapiens (Human))	pIC50	> 7.00
COc1ccc(C(=O)NC2CCCCC2)cc1S(=O)(=O)Nc1cccnc1	TNAP (Homo sapiens (Human))	pIC50	< 6.00
